Experiment: Aqueous solubility of the compound in phosphate buffered saline at pH 7.4
Assay type: physicochemical
Conditions: buffer

SMILES_STRING	QUANTITY_UNIT	solubility
Nc1nc2ccc(S(=O)(=O)N3CCCCC3)cc2s1	µM	338.8
O=Cc1nc2ccccc2n1Cc1ccc2ccccc2c1	µM	42.1
COC(=O)c1ccc(/C=C/C2=[N+](C)c3ccc(OC)cc3C2(C)C)cc1	µM	0.2

All figures here come from ChEMBL document CHEMBL2069300.
